tested on: patients with lung diseases including COPD; assay: Comparison of inhaled salts of pyruvate, 5 ml of 5 mM solution (Table II); conditions: 5 ml of 5 mM solution in saline, inhaled
Below is a list of entries, each paired with its recorded Increased in FEV-1% value.

{"Compound": "CC(=O)C(=O)N[C@@H](CS)C(=O)O [Pyruvyl-cysteine]", "Unit Symbol": "%", "Increased in FEV-1%": 5}
{"Compound": "CC(=O)N[C@@H](CS)C(=O)O [N-acetylcysteine, reference compound]", "Unit Symbol": "%", "Increased in FEV-1%": 2}
{"Compound": "CC(=O)C(=O)O.N [Ammonium, ammonium pyruvate]", "Unit Symbol": "%", "Increased in FEV-1%": 0}
{"Compound": "CC(=O)C(=O)[O-].[K+] [Potassium, potassium pyruvate]", "Unit Symbol": "%", "Increased in FEV-1%": 2.1}
{"Compound": "CC(=O)C(=O)[O-].[Na+] [Sodium, sodium pyruvate]", "Unit Symbol": "%", "Increased in FEV-1%": 2.0}
{"Compound": "CC(=O)C(=O)[O-].[Li+] [Lithium, lithium pyruvate]", "Unit Symbol": "%", "Increased in FEV-1%": 1.0}

----------
system: patients with lung diseases including COPD; experiment: Comparison of inhaled salts of pyruvate, 5 ml of 5 mM solution (Table II); conditions: 5 ml of 5 mM solution, inhaled
Below is a list of entries, each paired with its recorded Percentage increase of Nitric Oxide over baseline value.
Reported Endpoint: Percentage increase of Nitric Oxide over baseline

{"Compound": "CC(=O)C(=O)[O-].[Na+] [Sodium, sodium pyruvate]", "Observed Measurement": "19.0%"}
{"Compound": "CC(=O)C(=O)[O-].[K+] [Potassium, potassium pyruvate]", "Observed Measurement": "25.0%"}
{"Compound": "CC(=O)C(=O)N[C@@H](CS)C(=O)O", "Observed Measurement": "1%"}
{"Compound": "CC(=O)C(=O)[O-].[Li+] [Lithium, lithium pyruvate]", "Observed Measurement": "28.0%"}
{"Compound": "CC(=O)C(=O)O.N [Ammonium, ammonium pyruvate]", "Observed Measurement": "35.0%"}
{"Compound": "CC(=O)N[C@@H](CS)C(=O)O [N-acetylcysteine, reference compound]", "Observed Measurement": "1%"}

----------
tested on: patients with lung diseases including COPD; assay: Comparison of inhaled salts of pyruvate, 5 ml of 0.5 mM solution (Table I); settings: 5 ml of 0.5 mM solution, inhaled
Reported Endpoint: Irritation

{"Molecule": "CC(=O)C(=O)[O-].[Na+] [Sodium, sodium pyruvate]", "Observed Measurement": "none"}
{"Molecule": "CC(=O)N[C@@H](CS)C(=O)O [N-acetylcysteine, reference compound]", "Observed Measurement": "None"}
{"Molecule": "CC(=O)C(=O)O.N [Ammonium, ammonium pyruvate]", "Observed Measurement": "Yes"}
{"Molecule": "CC(=O)C(=O)[O-].[K+] [Potassium, potassium pyruvate]", "Observed Measurement": "None"}
{"Molecule": "CC(=O)C(=O)[O-].[Li+] [Lithium, lithium pyruvate]", "Observed Measurement": "Yes"}

----------
experiment: Viable non-cancerous cells after incubation with anticancer drugs in various media (Table VIII); type: cell-based; parameters: concentration or dose not given beside the values; conditions: non-cancerous cells (normal peripheral blood monocytes), Drugs in commercial formula with sodium pyruvate with calcium & phosphate & Magnesium ions repeat study; read-out: Percentage of viable non-cancerous cells
Below is a list of entries, each paired with its recorded viability value.

{"Molecule": "O=c1[nH]c(=O)n([C@H]2C[C@H](O)[C@@H](CO)O2)cc1F", "viability, %": 91}
{"Molecule": "CC(C)(C#N)c1cc(Cn2cncn2)cc(C(C)(C)C#N)c1", "viability, %": 94}
{"Molecule": "CN(Cc1cnc2nc(N)nc(N)c2n1)c1ccc(C(=O)N[C@@H](CCC(=O)O)C(=O)O)cc1 [methotrexate]", "viability, %": 98}
